# METHOD DESCRIPTION: Drug distribution in Sprague-Dawley rat lung at 1 mg/kg, iv measured after 4 hrs by LC-MS/MS analysis
# Assay type: ADME, organism-based
# TEST CONTEXT: read-out: Drug uptake
METRIC: concentration at 4 h (ng/g)
Just the number please, in ng/g, no unit attached.

Q: Assign concentration at 4 h to the following record: COc1ccc(NS(=O)(=O)c2ccc(N3CCN(Cc4cccc([N+](=O)[O-])c4)CC3)c([N+](=O)[O-])c2)cn1
A: 502

* * *

# METHOD DESCRIPTION: Drug distribution in Sprague-Dawley rat spleen at 1 mg/kg, iv measured after 4 hrs by LC-MS/MS analysis
# Type: ADME, organism-based
# TEST CONTEXT: read-out: Drug uptake
METRIC: concentration at 4 h (ng/g)
Just the number please, in ng/g, no unit attached.

Q: Assign concentration at 4 h to the following record: COc1ccc(NS(=O)(=O)c2ccc(N3CCN(Cc4cccc([N+](=O)[O-])c4)CC3)c([N+](=O)[O-])c2)cn1
A: 113
